Value source: the supplement of paper PMC9112550

tested on: Escherichia coli TOP10; test: shrunken log2 fold change of peptide-encoding DNA abundance (4.5 h post-induction vs induction); higher = less antimicrobial activity (less host growth inhibition); conditions: time post-induction: 4.5 h; library: site-saturation at positions 5, 18, 19, 20;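 also: peptides expressed intracellularly from a pBAD plasmid library in pooled LB shake-flask culture, induced with 0.3% L-arabinose, DNA abundance read by NGS, three biological replicates, DESeq2 with apeglm shrinkage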
MEASUREMENT_KIND: shrunken log2 fold change

Query: Would you kindly share the measured shrunken log2 fold change for RRIRWRPPRLPRPRPRPTINPRP ?
Reply: -0.303

Query: And what about the sequence RRIRGRPPRLPRPRPRPCLMPRP ?
Reply: 0.0827

Query: And what about the sequence RRIRERPPRLPRPRPRPNVEPRP ?
Reply: 0.0609

Query: And what about the sequence RRIRARPPRLPRPRPRPHCSPRP ?
Reply: -0.131

Query: And what about the sequence RRIRSRPPRLPRPRPRPWDPPRP ?
Reply: 0.0317

Query: And what about the sequence RRIRDRPPRLPRPRPRPAAFPRP ?
Reply: 0.549

Query: And what about the sequence RRIRMRPPRLPRPRPRPNICPRP ?
Reply: 0.021

Query: And what about the sequence RRIRQRPPRLPRPRPRPQKFPRP ?
Reply: -0.283

Query: And what about the sequence RRIRERPPRLPRPRPRPSYYPRP ?
Reply: -0.126

Query: And what about the sequence RRIRPRPPRLPRPRPRPDLYPRP ?
Reply: -0.153

Query: And what about the sequence RRIRTRPPRLPRPRPRPAPFPRP ?
Reply: 0.0263

Query: And what about the sequence RRIRIRPPRLPRPRPRPRSMPRP ?
Reply: -0.695

Query: And what about the sequence RRIRWRPPRLPRPRPRPHAQPRP ?
Reply: 0.0298

Query: And what about the sequence RRIRCRPPRLPRPRPRPHMEPRP ?
Reply: -0.194

Query: And what about the sequence RRIRGRPPRLPRPRPRPMIIPRP ?
Reply: 0.0975

Query: And what about the sequence RRIRMRPPRLPRPRPRPSWDPRP ?
Reply: 0.709

Query: And what about the sequence RRIRCRPPRLPRPRPRPDVGPRP ?
Reply: -0.0874

Query: And what about the sequence RRIRNRPPRLPRPRPRPKRPPRP ?
Reply: 0.589

Query: And what about the sequence RRIRHRPPRLPRPRPRPRAPPRP ?
Reply: 0.741

Query: And what about the sequence RRIRWRPPRLPRPRPRPVGSPRP ?
Reply: 0.445

Query: And what about the sequence RRIRKRPPRLPRPRPRPAQIPRP ?
Reply: 0.342

Query: And what about the sequence RRIRFRPPRLPRPRPRPWIYPRP ?
Reply: -0.662

Query: And what about the sequence RRIRNRPPRLPRPRPRPAFWPRP ?
Reply: 0.0558

Query: And what about the sequence RRIRMRPPRLPRPRPRPRMTPRP ?
Reply: 1.84

Query: And what about the sequence RRIRERPPRLPRPRPRPAVDPRP ?
Reply: 0.116

Query: And what about the sequence RRIRHRPPRLPRPRPRPHQEPRP ?
Reply: -0.0212

Query: And what about the sequence RRIRLRPPRLPRPRPRPHQRPRP ?
Reply: -0.259

Query: And what about the sequence RRIRARPPRLPRPRPRPAVKPRP ?
Reply: 0.233

Query: And what about the sequence RRIRCRPPRLPRPRPRPDSTPRP ?
Reply: -0.235

Query: And what about the sequence RRIRMRPPRLPRPRPRPKFGPRP ?
Reply: -0.0062

Query: And what about the sequence RRIRVRPPRLPRPRPRPKSIPRP ?
Reply: -0.172

Query: And what about the sequence RRIRIRPPRLPRPRPRPMAQPRP ?
Reply: 0.00812
